Numbers sourced from PubChem BioAssay AID1963830.

Tested on: 922993-354-T-J3-PDC complex spheroid viability
Experiment: Anticancer human tumor 922993-354-T-J3-PDC patient-derived endometrial carcinoma cell line growth inhibition [POLQ]
Conditions: second compound 0.1 µM; first compound 10 µM; hits give low values
observation_type: viability, T/C (%)
// note: answer is a bare numeric in %

Observe how each entry below is paired with its result.
INSERT INTO assay_data (compound, uom, obs_value) VALUES
  ('CC(C)n1c(=O)n(C)c2cnc3cc(F)c(-c4ccc(OCCCN5CCCCC5)nc4)cc3c21 + Cc1cccc(N(C)C(=O)C2C(O)CCN2c2nc(C)cc(C(F)(F)F)c2C#N)c1', '%', 74.4),
  ('O=C(c1cc(Cc2n[nH]c(=O)c3ccccc23)ccc1F)N1CCN(C(=O)C2CC2)CC1 + Cc1cccc(N(C)C(=O)C2C(O)CCN2c2nc(C)cc(C(F)(F)F)c2C#N)c1', '%', 109);

Identify viability, T/C associated with the compound CC1COCCN1c1cc(C2(S(C)(=N)=O)CC2)nc(-c2ccnc3[nH]ccc23)n1 (stereo not given) + Cc1cccc(N(C)C(=O)C2C(O)CCN2c2nc(C)cc(C(F)(F)F)c2C#N)c1
62.9

Give the reported viability, T/C for this compound. O=C(c1cc(Cc2n[nH]c(=O)c3ccccc23)ccc1F)N1CCN(C(=O)C2CC2)CC1 + COC1C(OC(N)=O)C(O)C(Oc2ccc3c(O)c(NC(=O)c4ccc(O)c(CC=C(C)C)c4)c(=O)oc3c2C)OC1(C)C
98.5

Give a short answer stating reported viability, T/C for O=c1[nH]cc(F)c(=O)[nH]1 + Nc1ccc(C#CCN(C(=O)Cc2ncc(C(F)(F)F)cc2C(F)(F)F)c2ccc(F)cc2)nn1 .
24.6

Identify viability, T/C associated with the compound CCc1cc2c(N3CCc4c(cc(Cn5ccnc5)cc4-c4cn(C)nc4C(F)(F)F)C3=O)cc(C)nc2c(OC)n1 + COC1C(OC(N)=O)C(O)C(Oc2ccc3c(O)c(NC(=O)c4ccc(O)c(CC=C(C)C)c4)c(=O)oc3c2C)OC1(C)C
88.9

Assign viability, T/C to the following record: CC(C)n1c(=O)n(C)c2cnc3cc(F)c(-c4ccc(OCCCN5CCCCC5)nc4)cc3c21 + COC1C(OC(N)=O)C(O)C(Oc2ccc3c(O)c(NC(=O)c4ccc(O)c(CC=C(C)C)c4)c(=O)oc3c2C)OC1(C)C
63.7

Could you please provide reported viability, T/C for COc1cc2cc(C(=O)CCC(=O)O)sc2cc1OC + Cc1cccc(N(C)C(=O)C2C(O)CCN2c2nc(C)cc(C(F)(F)F)c2C#N)c1 ? Thanks!
90.6

Report viability, T/C for CNCc1ccc(-c2[nH]c3cc(F)cc4c3c2CCNC4=O)cc1 + Nc1ccc(C#CCN(C(=O)Cc2ncc(C(F)(F)F)cc2C(F)(F)F)c2ccc(F)cc2)nn1
92.5

Give the measured viability, T/C for CC1COCCN1c1cc(C2(O)CC3CCC(C2)O3)c2cnn(-c3ccn[nH]3)c2n1 (stereo not given) + COC1C(OC(N)=O)C(O)C(Oc2ccc3c(O)c(NC(=O)c4ccc(O)c(CC=C(C)C)c4)c(=O)oc3c2C)OC1(C)C
10.7

====

Test system: 922993-354-T-J3-PDC complex spheroid viability
Experiment: Anticancer human tumor 922993-354-T-J3-PDC cell line growth inhibition [POLQ];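 further: spheroids exposed to the agents for one week; 100% = DMSO vehicle control wells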
Conditions: second compound 0.316 µM; first compound 0.0316 µM; hits give low values
observation_type: viability, T/C (%)
Dear colleague, please return just the value in %, with no unit written.

INSERT INTO results (compound, study_target, observation_type, obs_value) VALUES
  ('C=CCn1c(=O)c2cnc(Nc3ccc(N4CCN(C)CC4)cc3)nc2n1-c1cccc(C(C)(C)O)n1 + Nc1ccc(C#CCN(C(=O)Cc2ncc(C(F)(F)F)cc2C(F)(F)F)c2ccc(F)cc2)nn1', '922993-354-T-J3-PDC complex spheroid viability', 'viability, T/C', 97.5),
  ('C#Cc1c(F)ccc2cc(O)cc(-c3ncc4c(N5CC6CCC(C5)N6)nc(OCC56CCCN5CC(F)C6)nc4c3F)c12 (stereo not drawn) + Cc1cccc(N(C)C(=O)C2C(O)CCN2c2nc(C)cc(C(F)(F)F)c2C#N)c1', '922993-354-T-J3-PDC complex spheroid viability', 'viability, T/C', 109);

Here is another compound to look at.
Give the value of viability, T/C reported for the following: CCCS(=O)(=O)Nc1ccc(F)c(C(=O)c2c[nH]c3ncc(-c4ccc(Cl)cc4)cc23)c1F + COC1C(OC(N)=O)C(O)C(Oc2ccc3c(O)c(NC(=O)c4ccc(O)c(CC=C(C)C)c4)c(=O)oc3c2C)OC1(C)C
112
